Source of measurements: ChEMBL document CHEMBL4689842

- Test system: U2OS
- TEST_METHOD_NOTES: Multiplex assay against U2OS
- Format: toxicity, cell-based
- SETUP_CONDITIONS: human, 48 h, 10 µM, compound concentration 10 uM, replicate 1
Here, each record is paired with measured Population Tubulin-Different-Phenotype (%) data.
Your answer is read as %, so omit the unit and give the number.

Exercise: Consider the compound "O=C(O)c1ccc2cc(-c3ccc(O)c(C45CC6CC(CC(C6)C4)C5)c3)ccc2c1" and give its measured Population Tubulin-Different-Phenotype (%).
Key: 7

Exercise: Fill in: Population Tubulin-Different-Phenotype (%) of CCC(=O)O[C@]1(C(=O)SCF)[C@H](C)C[C@H]2[C@@H]3C[C@H](F)C4=CC(=O)C=C[C@]4(C)[C@@]3(F)[C@@H](O)C[C@@]21C [FLUTICASONE PROPIONATE] is ___
Key: 38

Exercise: Fill in: Population Tubulin-Different-Phenotype (%) of CCn1c(-c2nonc2N)nc2cnc(Oc3cccc(NC(=O)c4ccc(OCCN5CCOCC5)cc4)c3)cc21 [GSK-269962A] is ___
Key: 100
